Sourced from patent US20220016254A1

# experimental.system: T1, human beta-Klotho (human, UniProt Q86Z14 1-1044)
# T1 sequence (looked up): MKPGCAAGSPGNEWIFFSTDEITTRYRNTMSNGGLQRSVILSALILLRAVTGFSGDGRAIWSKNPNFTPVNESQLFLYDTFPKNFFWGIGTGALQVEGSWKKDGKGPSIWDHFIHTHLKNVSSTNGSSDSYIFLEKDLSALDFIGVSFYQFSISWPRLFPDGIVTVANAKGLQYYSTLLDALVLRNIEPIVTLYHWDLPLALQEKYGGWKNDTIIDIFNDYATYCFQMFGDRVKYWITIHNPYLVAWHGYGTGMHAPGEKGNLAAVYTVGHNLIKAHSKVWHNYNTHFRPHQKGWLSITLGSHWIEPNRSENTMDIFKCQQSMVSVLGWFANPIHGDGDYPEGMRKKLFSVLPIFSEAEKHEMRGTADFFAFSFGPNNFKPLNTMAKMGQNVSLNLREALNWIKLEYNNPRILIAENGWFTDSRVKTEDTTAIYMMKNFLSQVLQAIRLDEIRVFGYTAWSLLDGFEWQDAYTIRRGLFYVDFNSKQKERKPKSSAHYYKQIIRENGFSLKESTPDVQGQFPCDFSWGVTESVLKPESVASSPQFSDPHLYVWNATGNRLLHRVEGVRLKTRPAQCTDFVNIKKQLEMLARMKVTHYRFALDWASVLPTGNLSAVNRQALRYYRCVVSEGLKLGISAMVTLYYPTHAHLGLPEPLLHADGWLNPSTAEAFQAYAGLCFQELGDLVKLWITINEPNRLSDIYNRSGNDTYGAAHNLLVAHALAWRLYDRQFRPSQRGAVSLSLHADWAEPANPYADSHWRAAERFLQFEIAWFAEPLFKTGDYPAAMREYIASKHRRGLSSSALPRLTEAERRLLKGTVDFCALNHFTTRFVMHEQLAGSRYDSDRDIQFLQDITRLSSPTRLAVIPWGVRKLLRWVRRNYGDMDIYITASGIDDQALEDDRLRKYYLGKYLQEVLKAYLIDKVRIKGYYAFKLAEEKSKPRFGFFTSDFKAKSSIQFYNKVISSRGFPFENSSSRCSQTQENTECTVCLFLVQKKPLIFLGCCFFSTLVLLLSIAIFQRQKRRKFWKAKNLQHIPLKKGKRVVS
# measurement.notes: cell-based or functional assay
Recorded measurements of FGF21 activity (EC50, nM); p-ERK levels, one per entry
Quick note: give the figure in nM, leave out the unit.

Could you tell me which FGF21 activity (EC50, nM); p-ERK levels is on file for Compound 54 (ligand, Moiety B (HOOC-(CH2)20-CO-gGlu-2XADO-EDA-CO-CH2) on 51C and 231C of fusion polypeptide) HGEGTFTSDVSSYLEEQAAKEFIAWLVRGGGGGGGSGGGGSGGGGSGGGGCHPIPDSSPLLQFGGQVRQRYLYTDDAQQTEAHLEIREDGTVGGAADQSPESLLQLKALKPGVIQILGVKTSRFLCQRPDGALYGSLHFDPEACSFRELLLEDGYNVYQSEAHGLPLHLPGQKSPHRDPAPRGPARFLPLPGLPPALPEPPGILAPQPPDVGSSDPLSLVGGSQGRSPSYCS ?
3.4

Could you tell me which FGF21 activity (EC50, nM); p-ERK levels is on file for Compound 63 (ligand, Moiety B (HOOC-(CH2)20-CO-gGlu-2XADO-EDA-CO-CH2) on 51C and 222C of fusion polypeptide) HGEGTFTSDVSSYLEEQAAKEFIAWLVKGGGGGGGSGGGGSGGGGSGGGGCHPIPDSSPLLQFGGQVRQRYLYTDDAQQTEAHLEIREDGTVGGAADQSPESLLQLKALKPGVIQILGVKTSRFLCQRPDGALYGSLHFDPEACSFRELLLEDGYNVYQSEAHGLPLHLPGQKSPHRDPAPRGPARFLPLPGLPPALPEPPGILAPQPPDVGSSDPLSLVGCSQGRSPSYES ?
1.2

Could you tell me which FGF21 activity (EC50, nM); p-ERK levels is on file for Compound 14 (ligand, Moiety A (HOOC-(CH2)16-CO-gGlu-2XADO) on 222K of fusion polypeptide) HGEGTFTSDVSSYLEEQAAREFIAWLVRGGGGQEPGQEPGQEPGQEPGQEPHPIPDSSPLLQFGGQVRQRYLYTDDAQQTEAHLEIREDGTVGGAADQSPESLLQLRALRPGVIQILGVRTSRFLCQRPDGALYGSLHFDPEACSFRELLLEDGYNVYQSEAHGLPLHLPGQRSPHRDPAPRGPARFLPLPGLPPALPEPPGILAPQPPDVGSSDPLSLVGKSQGRSPSYES ?
19
